A collection of compounds and their measured IC50
# system_tested: Voltage-gated inwardly rectifying potassium channel KCNH2 (Homo sapiens, UniProt Q12809)
# Sequence (Q12809 whole entry): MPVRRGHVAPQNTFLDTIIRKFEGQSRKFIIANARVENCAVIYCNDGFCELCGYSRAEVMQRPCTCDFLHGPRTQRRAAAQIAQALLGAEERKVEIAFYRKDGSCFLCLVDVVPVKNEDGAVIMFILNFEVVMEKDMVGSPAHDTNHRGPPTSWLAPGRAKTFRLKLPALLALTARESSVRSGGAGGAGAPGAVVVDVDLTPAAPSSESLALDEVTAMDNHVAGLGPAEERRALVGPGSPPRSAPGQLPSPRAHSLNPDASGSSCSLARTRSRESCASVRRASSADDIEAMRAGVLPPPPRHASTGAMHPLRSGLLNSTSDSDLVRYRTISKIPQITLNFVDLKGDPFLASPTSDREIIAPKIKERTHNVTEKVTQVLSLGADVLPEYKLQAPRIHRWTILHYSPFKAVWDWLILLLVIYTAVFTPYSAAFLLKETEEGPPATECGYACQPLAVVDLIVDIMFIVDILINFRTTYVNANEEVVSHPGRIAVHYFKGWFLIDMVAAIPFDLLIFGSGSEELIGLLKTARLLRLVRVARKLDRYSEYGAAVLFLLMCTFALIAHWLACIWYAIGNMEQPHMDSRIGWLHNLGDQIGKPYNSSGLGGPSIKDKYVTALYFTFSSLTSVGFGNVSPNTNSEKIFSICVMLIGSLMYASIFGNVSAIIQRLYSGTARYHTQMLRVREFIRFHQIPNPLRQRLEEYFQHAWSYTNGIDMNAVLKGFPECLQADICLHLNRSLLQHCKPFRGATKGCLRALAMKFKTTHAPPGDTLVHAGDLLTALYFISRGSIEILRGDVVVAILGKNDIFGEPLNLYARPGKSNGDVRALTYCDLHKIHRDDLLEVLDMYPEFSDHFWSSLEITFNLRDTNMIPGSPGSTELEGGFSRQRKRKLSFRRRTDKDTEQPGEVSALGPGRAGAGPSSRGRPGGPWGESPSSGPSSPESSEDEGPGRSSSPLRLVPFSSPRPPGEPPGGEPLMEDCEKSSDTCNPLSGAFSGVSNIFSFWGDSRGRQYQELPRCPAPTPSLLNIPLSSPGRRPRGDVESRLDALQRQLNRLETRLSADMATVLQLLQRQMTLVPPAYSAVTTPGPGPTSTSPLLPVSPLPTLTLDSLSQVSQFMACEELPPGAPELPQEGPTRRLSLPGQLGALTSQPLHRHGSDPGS
# assay_notes: In vitro inhibition of MK-499 binding to hERG in HEK293 cells
# condition_details: read-out: IP

| compound_structure | IC50 |
| --- | --- |
| O=S(=O)(Nc1ccc2[nH]c(Cc3ccc(Oc4ccccc4)cc3)nc2c1)c1ccccc1 | 680 nM |
| Oc1ccc2[nH]c(CN3CCC(Cc4ccccc4)CC3)nc2c1 | 2600 nM |
| c1ccc(Oc2ccc(Cc3nc4ccccc4[nH]3)cc2)cc1 | 2000 nM |
| Oc1ccc2[nH]c(CN3CCC(Cc4cccc(F)c4)CC3)nc2c1 | 2100 nM |
| N#Cc1ccc2[nH]c(Cc3ccc(Oc4ccccc4)cc3)nc2c1 | 1100 nM |
| Oc1ccc2[nH]c(CN3CCC(Cc4c(F)cccc4F)CC3)nc2c1 | 3000 nM |
| CS(=O)(=O)Nc1ccc2nc(CN3CCC(Cc4ccccc4)CC3)[nH]c2c1 | 340 nM |
| Cc1ccc(CC2CCN(Cc3nc4cc(O)ccc4[nH]3)CC2)cc1 | 390 nM |
| O=[N+]([O-])c1ccc2[nH]c(Cc3ccc(Oc4ccccc4)cc3)nc2c1 | 770 nM |
| CN(c1ccc2[nH]c(Cc3ccc(Oc4ccccc4)cc3)nc2c1)S(C)(=O)=O | 640 nM |

---

# system_tested: Adrenergic receptor alpha-1 (Rattus norvegicus, UniProt P15823+P23944+P43140)
# assay_notes: In vitro inhibitory activity against alpha-1 adrenergic receptor binding to rat brain membranes
# Design: species or system Membrane
Class field: derived from IC50; ranges 0: < 0.8 µM; 1: ≥ 0.8 µM and < 3 µM; 2: ≥ 3 µM

| compound_structure | system_tested | label_value |
| --- | --- | --- |
| c1ccc(Oc2ccc(Cc3nc4ccccc4[nH]3)cc2)cc1 | Adrenergic receptor alpha-1 (Rattus norvegicus, UniProt P15823+P23944+P43140) | 2 |
| Cc1ccc(CC2CCN(Cc3nc4cc(O)ccc4[nH]3)CC2)cc1 | Adrenergic receptor alpha-1 (Rattus norvegicus, UniProt P15823+P23944+P43140) | 1 |
| Nc1ccc2[nH]c(Cc3ccc(Oc4ccccc4)cc3)nc2c1 | Adrenergic receptor alpha-1 (Rattus norvegicus, UniProt P15823+P23944+P43140) | 1 |
| CN(c1ccc2[nH]c(Cc3ccc(Oc4ccccc4)cc3)nc2c1)S(C)(=O)=O | Adrenergic receptor alpha-1 (Rattus norvegicus, UniProt P15823+P23944+P43140) | 1 |
| Oc1ccc2[nH]c(CN3CCC(Cc4ccc(F)cc4)CC3)nc2c1 | Adrenergic receptor alpha-1 (Rattus norvegicus, UniProt P15823+P23944+P43140) | 0 |
| CCS(=O)(=O)Nc1ccc2[nH]c(Cc3ccc(Oc4ccccc4)cc3)nc2c1 | Adrenergic receptor alpha-1 (Rattus norvegicus, UniProt P15823+P23944+P43140) | 1 |
| CC(C)S(=O)(=O)Nc1ccc2[nH]c(Cc3ccc(Oc4ccccc4)cc3)nc2c1 | Adrenergic receptor alpha-1 (Rattus norvegicus, UniProt P15823+P23944+P43140) | 2 |
| CCCS(=O)(=O)Nc1ccc2[nH]c(Cc3ccc(Oc4ccccc4)cc3)nc2c1 | Adrenergic receptor alpha-1 (Rattus norvegicus, UniProt P15823+P23944+P43140) | 2 |
| Oc1ccc2[nH]c(CN3CCC(Cc4ccccc4)CC3)nc2c1 | Adrenergic receptor alpha-1 (Rattus norvegicus, UniProt P15823+P23944+P43140) | 0 |
| CC(C)S(=O)(=O)Nc1ccc2[nH]c(CN3CCC(Cc4ccccc4)CC3)nc2c1 | Adrenergic receptor alpha-1 (Rattus norvegicus, UniProt P15823+P23944+P43140) | 0 |
